Please provide measured growth for the entries that follow.
- Test system: SK-MEL-5 melanoma
- Test Name: NCI-60 one-dose screen, 48 h (100 = growth as untreated, 0 = no growth, -100 = all killed)
- Condition Summary: 10 µM
Compounds without any hit were thinned out: in the full panel of roughly 83,000, 20% have a hit. Calls of active or inactive are those of the source. The calls were made as follows: active = growth percent below 10; inactive = the rest.

Cc1ccc(N)cc1[N+](=O)[O-]    111% (inactive)
CC(=O)c1ccc2c(ccc3ccccc32)c1    96.8% (inactive)
CCc1nc(N)nc(N)c1-c1ccc(Cl)cc1    24.3% (inactive)
NCCC(=O)c1ccc(Cl)cc1    99.5% (inactive)
C[N+](C)=c1ccc2nc3c(cc(Nc4ccccc4)c4ccccc43)oc-2c1    46.3% (inactive)

Please give growth for each item listed below.
1. O=c1[nH][nH]c(=O)c2cc([N+](=O)[O-])ccc12
2. O=c1[nH]c(O)c(/C=C2/C=Nc3ccccc32)[nH]1
3. CC12CC3CC1C(C(=O)O2)C3C(=O)O (stereo unspecified)
4. COC(=O)C(C)Oc1ccc(OC#N)cc1 (stereo unspecified)
5. CCN(CC)C(=O)/C=C(/C)c1ccccc1
6. CC(=O)c1c[nH]c2ccccc12

-- reply
["101% (inactive)", "91.2% (inactive)", "104% (inactive)", "99% (inactive)", "90.1% (inactive)", "103% (inactive)"]

Where do the numbers come from? From PubChem BioAssay (NCI).
